- System: L1210 leukemia ip in BDF1 mice, survival T/C
- protocol_details: NCI In Vivo Anticancer Drug Screen. Data for tumor model L1210 Leukemia (intraperitoneal) in B6D2F1 (BDF1) mice
- condition_context: endpoint: mean survival time; dose: 150.0 mg/kg/injection; schedule: Q01DX001 (ip); vehicle: saline
Toxic doses and inconclusive results are not listed. Rule as the data show it: active = T/C of 150% or more; inactive = T/C below 125%.
Reply using exactly one outcome from active, inactive

{"molecule": "CCN(CC)CCNC(c1ccc(OC)cc1)C(Cl)(Cl)Cl (configuration not stated)", "qualitative_label": "inactive"}
{"molecule": "CCCCCCCCOP(=O)(N1CC1)N1CC1", "qualitative_label": "active"}

Field: next molecule
Input: Please indicate how the test categorized "O=S([O-])c1ccc(Cl)cc1.O=S([O-])c1ccc(Cl)cc1.[Zn+2]" .
Output: inactive

----------
- System: L1210 leukemia ip in BDF1 mice, survival T/C
- protocol_details: NCI In Vivo Anticancer Drug Screen. Data for tumor model L1210 Leukemia (intraperitoneal) in B6D2F1 (BDF1) mice
- condition_context: endpoint: mean survival time; dose: 100.0 mg/kg/injection; schedule: Q04DX003 (ip); vehicle: Klucel (hydroxypropylcellulose) (HPC); higher = longer survival
Inconclusive results and toxic doses are left out.
Listed below: T/C values for each entry.

The cases that follow already have their T/C on record.
{"compound": "Cc1ccc(NC(=O)OCCCl)c([N+](=O)[O-])c1", "study_target": "L1210 leukemia ip in BDF1 mice, survival T/C", "T/C": "98 % of control"}
{"compound": "CC(C)CCC(O)c1c[nH]c(=O)[nH]c1=O (stereo not drawn)", "study_target": "L1210 leukemia ip in BDF1 mice, survival T/C", "T/C": "105 % of control"}
{"compound": "CC1(C)CC(=O)CC(C)(CN)C1 (stereo not drawn)", "study_target": "L1210 leukemia ip in BDF1 mice, survival T/C", "T/C": "100 % of control"}

Input: // T/C lookup, key: COc1ccc(C2CCC(=O)CC2(O)C(=O)O)cc1 (stereo not drawn)
Output: 98 % of control

Input: Would you kindly repeat that for "O=C(CC(CC(=O)c1ccccc1)c1ccco1)c1ccccc1" ?
Output: 94 % of control

Input: Also need "O=C(Nc1cc([N+](=O)[O-])ccc1F)N(Cc1ccccc1)c1ccccc1" , thanks.
Output: 97 % of control

Input: // same read-out, input: "CCOC(=O)c1cnc(SC)nc1Nc1cccc(OC)c1"
Output: 108 % of control

Input: Now the same for COC1=NS(=O)(=O)C2CCCCCCC2O1 (stereo not drawn)
Output: 95 % of control

Input: Can you handle "O=C(Nc1ccccc1)Nc1ccc(Cl)c(Cl)c1" next?
Output: 107 % of control

Input: Same lookup for CC1(C)C=C(C(Br)c2ccc(Cl)cc2)C(=O)c2ccccc21 (stereo not drawn) , please.
Output: 95 % of control

Input: Consider next the compound COC(=O)C1C2CCc3cc(OC)ccc3C2CCC1(C)C(=O)O (stereo not drawn) in the same way.
Output: 95 % of control

Input: Now this one: "O=C(O)c1ccc(/C=N\Nc2ccccc2)cc1"
Output: 106 % of control

Input: Could you do the same for "O=[N+]([O-])c1cc(S(=O)(=O)Oc2ccccc2)ccc1Cl" , please?
Output: 98 % of control

Input: Try this compound too: "[Cl][Sb]([Cl])([c]1ccccc1)([c]1ccccc1)[c]1ccccc1"
Output: 102 % of control

Input: Further, for "Nc1n[nH]c(C(=O)O)n1" ?
Output: 107 % of control

Input: And what about the compound Cc1ccc(C(=O)CC(C(=O)c2ccccc2)c2ccccc2)cc1 (stereo not drawn) ?
Output: 94 % of control

Input: Subsequent entry: O=C(OC12CCCCC1CCCC2)c1ccc([N+](=O)[O-])cc1 (stereo not drawn)
Output: 96 % of control

Input: // next record "O=C(O)c1c(Cl)c(Cl)c(Cl)c(C(=O)O)c1Cl"
Output: 93 % of control

----------
T/C listing for selected molecules.
- Test system: L1210 leukemia ip in BDF1 mice, survival T/C
- protocol_details: NCI In Vivo Anticancer Drug Screen. Data for tumor model L1210 Leukemia (intraperitoneal) in B6D2F1 (BDF1) mice
- condition_context: endpoint: mean survival time; dose: 100.0 mg/kg/injection; schedule: Q01DX001 (ip); vehicle: other; higher = longer survival
Toxic doses and inconclusive results are not listed.

Completed entries (count: 3):
{"molecule": "O=C(Nc1ccc(C(F)(F)F)c([N+](=O)[O-])c1)c1ccc(C(=O)Nc2ccc(C(F)(F)F)c([N+](=O)[O-])c2)cc1", "study_target": "L1210 leukemia ip in BDF1 mice, survival T/C", "T/C": "96 % of control"}
{"molecule": "CCSC(=O)n1ncc2cc(Cl)ccc21", "study_target": "L1210 leukemia ip in BDF1 mice, survival T/C", "T/C": "105 % of control"}
{"molecule": "CN(N=O)C(=O)NC1C=CCCC1 (stereo unspecified)", "study_target": "L1210 leukemia ip in BDF1 mice, survival T/C", "T/C": "96 % of control"}

Input: Request the reported T/C associated with CCCCCNC(=O)CC(O)C(=O)NCCCCC (stereo unspecified)
Output: 87 % of control

Input: Here is the next molecule: "CC(C)CC(CC(C)C)OB(OC(CC(C)C)CC(C)C)OC(CC(C)C)CC(C)C"
Output: 96 % of control

Input: Check "O=C(N/N=C\c1ccc(Cl)cc1Cl)c1ccco1" too.
Output: 90 % of control

----------
- System: L1210 leukemia ip in BDF1 mice, survival T/C
- protocol_details: NCI In Vivo Anticancer Drug Screen. Data for tumor model L1210 Leukemia (intraperitoneal) in B6D2F1 (BDF1) mice
- condition_context: endpoint: mean survival time; dose: 400.0 mg/kg/injection; schedule: Q04DX002 (ip); vehicle: saline with Tween-80; higher = longer survival
Inconclusive results and toxic doses are left out.
endpoint_name: T/C

Please review the following examples before continuing.
{"compound": "N#CCC(=O)N/N=C/c1cc(Cl)cc(Cl)c1O", "T/C": "93 % of control"}
{"compound": "CCCNC(=O)Oc1ccc(-c2ccccc2)cc1Cl", "T/C": "97 % of control"}
{"compound": "CC1(C)C=CC2CC2(C)C(=O)C1 (configuration not stated)", "T/C": "102 % of control"}

Input: Endpoint output: T/C of "CCc1ccc(OC/C=C(/C)CC/C=C(\C)CCC=C(C)C)cc1" . Value?
Output: 87 % of control

Input: Please answer likewise for "CC(=O)CCC[CH2][Sn]([c]1ccccc1)([c]1ccccc1)[c]1ccccc1"
Output: 97 % of control

Input: What about "NC(=O)N/N=C/c1ccc[n+]([O-])c1" ?
Output: 96 % of control

Input: Also check O=C1NC(=O)C2CCCCC12 (configuration not stated)
Output: 107 % of control

----------
- Test system: L1210 leukemia ip in BDF1 mice, survival T/C
- protocol_details: NCI In Vivo Anticancer Drug Screen. Data for tumor model L1210 Leukemia (intraperitoneal) in B6D2F1 (BDF1) mice
- condition_context: endpoint: mean survival time; dose: 100.0 mg/kg/injection; schedule: Q04DX003 (ip); vehicle: acetone; higher = longer survival
Toxic doses and inconclusive results are not listed.
endpoint_name: T/C

{"compound": "O=S(=O)(O)CCCBr", "T/C": "96 % of control"}

Input: # query: T/C of entry COC1=CCC2=C(C1)CC(C)O2 (centres undefined)
Output: 93 % of control

Input: Cool, now "CCOC(=O)/C=C(/Nc1ccc(C(=O)c2ccccc2)cc1)C(=O)OCC"
Output: 95 % of control

Input: Param item: CCCCCCCOC(C[N+](=O)[O-])C(Cl)(Cl)Cl (centres undefined)
Output: 99 % of control

----------
- System: L1210 leukemia ip in BDF1 mice, survival T/C
- protocol_details: NCI In Vivo Anticancer Drug Screen. Data for tumor model L1210 Leukemia (intraperitoneal) in B6D2F1 (BDF1) mice
- condition_context: endpoint: mean survival time; dose: 200.0 mg/kg/injection; schedule: Q01DX009 (ip); vehicle: Klucel (hydroxypropylcellulose) (HPC); higher = longer survival
Toxic doses and inconclusive results are not listed.
endpoint_name: T/C

{"molecule": "C/C=C1\\CCC2C(=C1C)CC1C2CC=C2CC(OC(C)=O)CCC21C (stereo not drawn)", "result": "87 % of control"}
{"molecule": "O=C(NCCNC(c1ccccc1)(c1ccccc1)c1ccccc1)C(F)(F)F", "result": "96 % of control"}
{"molecule": "COc1ccc(O)c(/C=N\\Nc2ccccc2)c1", "result": "91 % of control"}
{"molecule": "Cc1ccc(COC(=O)c2ccccc2)cc1", "result": "98 % of control"}
{"molecule": "C[C@]12C=CC(=O)C=C1CC[C@@H]1[C@@H]2C(=O)C[C@@]2(C)[C@H]1CC[C@]2(O)C(=O)CO", "result": "100 % of control"}

Please find the next molecule below.
Input: // query T/C value for entry "COc1cc(OC)c(NC(=O)c2cc3ccccc3cc2O)cc1Cl"
Output: 101 % of control
